- System: LOX IMVI melanoma
- experimental.protocol: NCI tumour cell line growth inhibition, 48 h
observed.property: TGI

// TGI lookup, key: `NC(=S)Nc1[nH]c(=S)nc2[nH]ccc12`
> 100 µM

Endpoint output: TGI of `COc1cc(-c2nn(-c3ccc(NC(=O)NCCNS(=O)(=O)c4ccc(F)cc4)cc3)cc2-c2ccncc2)ccc1Cl` . Value?
2.88 µM

Entry CC[C@H](C)[C@H]1NC(=O)[C@@H](NC(=O)[C@@H](CC(C)C)N(C)C(=O)C2CCCN2C(=O)[C@H](C)O)[C@@H](C)OC(=O)[C@@H]2Cc3ccccc3CN2C(=O)[C@@H]2CCCN2C(=O)[C@H](CC(C)C)NC(=O)[C@@H](C)C(=O)[C@H](C(C)C)OC(=O)C[C@@H]1O (stereo not given in full) : reported TGI = ?
9.11 µM

For the compound COC(=O)C1=C(O)C(C(=O)OC)[C@]2(O)[C@@H](C(=O)OC)[C@H]1[C@H](C)[C@@H](c1ccccc1)[C@@H]2C(=O)OC (stereo not given in full) , what TGI is on record?
> 100 µM

TGI for `COC(=O)/C=C/CC(=O)NS(C)(=O)=O` ?
> 10 µM

Others:
I would be grateful if you could share the reported TGI for `O=c1oc2c3ccc4ccccc4c3n(CCCN3CCCCC3)c2c2ccccc12` .
> 100 µM

Dear colleague, I am looking for the recorded TGI of the following compound: `CN(C)CCCN1N=Nc2cccc3cccc1c23`
> 100 µM

Looking for the measured TGI of `COc1ccc(-c2nc(N3CCCC3)no2)cc1` , can you help?
> 100 µM

Looking for the measured TGI of `Nc1nc(N)c2ncn(-c3ccc(Br)cc3)c2n1` , can you help?
> 100 µM

Find the recorded TGI belonging to `Cc1ccc(Nc2nc3ccccc3c(=O)n2N)cc1` and report it.
> 100 µM

---

- System: RXF 393 renal
- experimental.protocol: NCI tumour cell line growth inhibition, 48 h
Each entry below carries its recorded TGI.

Known TGI results, listed for orientation:
I have this compound here, `O=[N+]([O-])c1cccc2nc3ccccc3c(NCCN(CCO)CCO)c12` , and I need its recorded TGI.
0.00447 µM

I'd like to know its TGI. The compound in question is `CCN(Cc1ccccn1)c1ccc(CO)c(Cl)c1`
> 100 µM

More entries:
# input compound: `OCn1nc2c(C3OCCO3)cc3ccccc3n2c1=S` ; wanted: its TGI
> 100 µM

Bench note: what TGI did `O=C(Nc1ccc(F)cc1F)c1cc(F)ccc1O` show?
8.33 µM

If you can, please state the reported TGI value of `COc1ccc(/C=c2/s/c(=C(\C#N)c3nc4ccccc4[nH]3)n(-c3ccccc3)c2=O)cc1` .
> 100 µM

---

- Tested on: MALME-3M melanoma
- experimental.protocol: NCI tumour cell line growth inhibition, 48 h
GI50 values by entry

As a guide, the following entries are already answered.
Looking for the measured GI50 of `COc1ccc(C2=C(c3cn(C)c4ccccc34)C(=O)OC2)cc1OC` , can you help?
9.32 µM

Give its GI50 value. Item: C=CC(C)c1cccc(C=O)c1O (stereo not drawn)
> 100 µM

Consider the compound `COC(=O)c1c(C)c2n(c1C)C(=O)C(c1ccccc1)=C2` and give its measured GI50.
> 100 µM

Fill in the blank: the reported GI50 of `COC(=O)[C@@]1(C)CCC[C@]2(C)[C@H]3Cc4occc4[C@H](C)[C@@H]3CC[C@@]12O` is ____.
21.3 µM

Next:
Which GI50 value is on record for `C#C[C@@]1(O)[C@@H](CO)O[C@@H](n2cc(Br)c3c(N)ncnc32)[C@@H]1O` ?
0.708 µM

Would you kindly share the measured GI50 for CN1C[C@@H](c2ccc(Cl)cc2)[C@]2(NC(=S)N(c3ccc(F)c(Cl)c3)C2=O)[C@@]12C(=O)NC1C=CC(Cl)=C[C@H]12 (stereo partly drawn) ?
2.81 µM

Please give the measured GI50 for this compound: `O=C1OCC(C#Cc2ccccc2)=C1Br`
2.18 µM

Report GI50 for `CC(C)OP(=O)(OC(C)C)c1ncc(-c2ccc(C(F)(F)F)cc2)c(NC2CCCCCC2)n1` please.
> 10 µM
